Molecular target: 5-hydroxytryptamine receptor 2A (Homo sapiens)
Test: Agonistic binding affinity against human 5-hydroxytryptamine 2A receptor in CHO cells using [125I]-DOI
measured-endpoint: Ki (µM)

1. c1cc2c3c(c1)c1c(n3CCNC2)CCCCCC1 0.036
2. CC1(C)Cc2c(c3cccc4c3n2CCNC4)C(C)(C)C1 0.152
3. C[C@@H]1Cn2c3c(c4cccc(c42)CN1)CCCC3 1.56
4. c1cc2c3c(c1)c1c(n3CCNC2)CCCCC1 0.199
5. Cc1cc2c3c(c1)c1c(n3CCNC2)CCCC1 1.23
6. Cc1cc2c3c(c1)c1c(n3CCNC2)CCC1 2.53

----------
Biological target: 5-hydroxytryptamine receptor 2C (Homo sapiens, UniProt P28335)
Sequence (P28335 whole entry): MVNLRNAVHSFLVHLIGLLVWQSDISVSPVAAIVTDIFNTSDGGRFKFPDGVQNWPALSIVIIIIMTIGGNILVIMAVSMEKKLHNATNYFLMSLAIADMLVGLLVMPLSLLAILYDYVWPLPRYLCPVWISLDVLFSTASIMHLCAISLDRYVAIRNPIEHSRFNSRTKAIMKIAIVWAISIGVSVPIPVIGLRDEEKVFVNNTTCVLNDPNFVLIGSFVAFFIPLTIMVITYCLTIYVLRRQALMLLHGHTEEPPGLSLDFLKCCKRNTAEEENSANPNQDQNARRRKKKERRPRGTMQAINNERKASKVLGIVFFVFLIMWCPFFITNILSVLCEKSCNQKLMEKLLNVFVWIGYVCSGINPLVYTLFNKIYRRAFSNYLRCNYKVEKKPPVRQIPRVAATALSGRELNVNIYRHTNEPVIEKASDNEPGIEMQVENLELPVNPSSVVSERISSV
Test: Agonistic binding affinity against human 5-hydroxytryptamine 2C receptor in CHO cells using [125I]- DOI
measured-endpoint: Ki (nM)

1) CC1(C)Cc2c(c3cccc4c3n2CCNC4)C(C)(C)C1 79
2) Fc1ccc2c3c1c1c(n3CCNC2)CCCC1 111

----------
Target: 5-hydroxytryptamine receptor 2A (Homo sapiens, UniProt P28223)
Sequence (P28223 whole entry): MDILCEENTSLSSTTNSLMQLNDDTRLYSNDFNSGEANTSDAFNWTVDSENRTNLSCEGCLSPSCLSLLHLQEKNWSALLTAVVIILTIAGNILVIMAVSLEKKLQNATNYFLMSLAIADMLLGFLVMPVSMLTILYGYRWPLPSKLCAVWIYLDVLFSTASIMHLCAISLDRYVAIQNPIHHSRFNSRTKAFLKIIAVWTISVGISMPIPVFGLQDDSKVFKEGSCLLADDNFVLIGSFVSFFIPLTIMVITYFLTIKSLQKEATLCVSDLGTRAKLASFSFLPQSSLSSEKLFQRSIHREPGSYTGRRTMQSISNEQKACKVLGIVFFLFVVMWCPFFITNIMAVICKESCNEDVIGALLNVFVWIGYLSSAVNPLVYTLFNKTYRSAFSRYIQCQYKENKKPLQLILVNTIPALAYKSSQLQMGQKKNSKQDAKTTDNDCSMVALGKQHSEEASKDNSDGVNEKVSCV
Assay: Effective concentration against human 5-hydroxytryptamine 2A receptor in CHO cells by stimulation of [3H]inositol monophosphate production
measured-endpoint: EC50 (µM)

1) c1cc2c3c(c1)c1c(n3CCNC2)CCCCCC1 64

----------
Target: UniProt:P28223
Experiment: Agonistic binding affinity against human 5-hydroxytryptamine 2A receptor in CHO cells using [125I]DOI radioligand
measured-endpoint: Ki (nM)

1) c1cc2c3c(c1)c1c(n3CCNC2)CCC1 922
